experimental-target: human CD33 S128N (human) (UniProt P20138)
Sequence (P20138 18-259 S128N): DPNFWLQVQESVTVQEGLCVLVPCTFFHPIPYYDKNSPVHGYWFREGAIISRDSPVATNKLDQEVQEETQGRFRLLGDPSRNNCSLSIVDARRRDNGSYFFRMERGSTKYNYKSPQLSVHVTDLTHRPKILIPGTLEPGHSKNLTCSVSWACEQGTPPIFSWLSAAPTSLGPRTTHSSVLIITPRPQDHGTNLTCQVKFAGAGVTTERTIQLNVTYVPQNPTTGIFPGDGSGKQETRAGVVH
protocol-details: SPR, Fab captured, 37C
endpoint: kon
Show the value, then the unit it is measured in.

>  <binder>
ADI-11825 Fab (Fab, V domains shown) VH: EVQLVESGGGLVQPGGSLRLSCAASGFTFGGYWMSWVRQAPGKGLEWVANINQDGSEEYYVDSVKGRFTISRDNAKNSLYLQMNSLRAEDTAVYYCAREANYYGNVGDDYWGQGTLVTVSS VL: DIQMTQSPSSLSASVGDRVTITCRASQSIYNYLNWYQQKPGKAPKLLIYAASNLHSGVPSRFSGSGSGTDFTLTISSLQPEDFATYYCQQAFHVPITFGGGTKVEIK

>  <kon>
2.1e+06 M⁻¹ s⁻¹

$$$$
>  <binder>
ADI-11826 Fab (Fab, V domains shown) VH: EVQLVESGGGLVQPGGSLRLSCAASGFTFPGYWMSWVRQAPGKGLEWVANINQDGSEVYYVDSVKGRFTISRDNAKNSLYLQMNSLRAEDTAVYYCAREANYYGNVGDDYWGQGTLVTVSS VL: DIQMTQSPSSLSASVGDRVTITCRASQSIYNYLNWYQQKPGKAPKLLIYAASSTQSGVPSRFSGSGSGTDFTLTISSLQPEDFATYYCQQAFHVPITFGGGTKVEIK

>  <kon>
2.17e+06 M⁻¹ s⁻¹

$$$$

Continue with the binder presented below.
query: # get_value(readout='kon', item= ADI-11812 Fab (Fab, V domains shown) VH: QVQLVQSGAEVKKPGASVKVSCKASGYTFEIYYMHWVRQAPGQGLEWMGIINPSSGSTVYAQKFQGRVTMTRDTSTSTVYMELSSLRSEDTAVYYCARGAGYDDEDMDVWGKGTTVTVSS VL: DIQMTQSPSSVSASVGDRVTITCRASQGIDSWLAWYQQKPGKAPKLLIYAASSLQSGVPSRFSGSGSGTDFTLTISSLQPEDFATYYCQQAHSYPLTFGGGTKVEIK )
result: 556000 M⁻¹ s⁻¹
